tested on: Streptococcus pneumoniae; experiment: In vitro antibacterial activity of 5649 strain of Gram positive bacteria Streptococcus pneumoniae; type: functional
Listed here are compounds together with their documented MIC.

# test-smiles, subject-of-test, MIC
records = [
    ("CC[C@H]1OC(=O)/C(C)=C/[C@H](C)[C@@H](O[C@@H]2O[C@H](C)C[C@H](N(C)C)[C@H]2O)[C@@](C)(OC)C[C@@H](C)C(=O)[C@H](C)[C@H]2N(NCCCn3cnc(-c4ccccc4)c3)C(=O)O[C@]12C", "Streptococcus pneumoniae", "0.5 µg/mL"),
    ("CC[C@H]1OC(=O)/C(C)=C/[C@H](C)[C@@H](O[C@@H]2O[C@H](C)C[C@H](N(C)C)[C@H]2O)[C@@](C)(OC)C[C@@H](C)C(=O)[C@H](C)[C@H]2N(NCCCc3ccc(O)cc3)C(=O)O[C@]12C", "Streptococcus pneumoniae", "1 µg/mL"),
    ("CC[C@H]1OC(=O)/C(C)=C/[C@H](C)[C@@H](O[C@@H]2O[C@H](C)C[C@H](N(C)C)[C@H]2O)[C@@](C)(OC)C[C@@H](C)C(=O)[C@H](C)[C@H]2N(NCc3ccc(O)c(O)c3)C(=O)O[C@]12C", "Streptococcus pneumoniae", "2 µg/mL"),
    ("CC[C@H]1OC(=O)/C(C)=C/[C@H](C)[C@@H](O[C@@H]2O[C@H](C)C[C@H](N(C)C)[C@H]2O)[C@@](C)(OC)C[C@@H](C)C(=O)[C@H](C)[C@H]2N(N)C(=O)O[C@]12C", "Streptococcus pneumoniae", "1 µg/mL"),
    ("CC[C@H]1OC(=O)/C(C)=C/[C@H](C)[C@@H](O[C@@H]2O[C@H](C)C[C@H](N(C)C)[C@H]2O)[C@@](C)(OC)C[C@@H](C)C(=O)[C@H](C)[C@H]2N(NCc3ccccc3)C(=O)O[C@]12C", "Streptococcus pneumoniae", "1 µg/mL"),
]
